Give measured GFP response, % of DMSO for each item. Keep answers brief.
assayText: modulators of CIT2-GFP expression in yeast, confirmation, S. cerevisiae, GFP fusion, cherry picks, mother/daughter gates (AID 2274)
conditionParameters: S. cerevisiae CIT2-GFP strain, flow cytometry, 3 h; measured here: daughter cell gate; at 10 µM; stronger effect = higher value
Answers are plain numbers, in %.

{"columns": ["compound", "measurementUnits", "numericReadout"],
 "data": [
  ["CC(C(=O)NCCc1ccc(F)cc1)N1CCN(Cc2ccccc2)CC1 (centres undefined)", "%", 96.5]
]}

Each compound below has a recorded value; state its GFP response, % of DMSO.
1. COc1ccc(C2C3=C(CCCC3=O)N(CC(=O)O)C3=C2C(=O)CCC3)cc1Cl
2. Cc1[nH][nH]c(=O)c1C(c1ccc(N(C)C)c(Br)c1)c1c(C)[nH][nH]c1=O
3. COc1ccc(C2CC(c3ccccc3)=NN2S(=O)(=O)c2ccccc2)cc1 (centres undefined)
4. CC(Oc1ccc(Cl)cc1Cl)C(=O)NC1=NN(c2ccccc2)C(=O)C1 (centres undefined)
5. O/C=c1\ccc2cccc3nc(C(F)(F)F)nc1c23
6. O=C1CCN(S(=O)(=O)c2ccccc2)C2CCCCC12 (centres undefined)
7. COCCN(CCOC)S(=O)(=O)c1ccc(C(=O)Nc2nnc(C)o2)cc1

[111, 96.4, 143, 99.1, 171, 104, 103]

Each compound below has a recorded value; state its GFP response, % of DMSO.
1. COc1ccc(-c2csc(NC(=O)c3ccco3)n2)cc1
2. O=C1ON=C(c2ccccc2)/C1=C\c1ccco1
3. Nc1cccnc1S(=O)(=O)c1cccc(C(F)(F)F)c1
4. O=C(NCc1ccc2c(c1)OCO2)c1nc(S(=O)(=O)Cc2ccccc2)ncc1Cl
5. COc1cccc(OCC(=O)N2CCCc3ccccc32)c1
6. Cc1ccc(N2CCN(C(=O)c3ccccc3Br)CC2)c(C)c1

1. 100
2. 89.9
3. 99.1
4. 98.3
5. 97.6
6. 97.2

Each compound below has a recorded value; state its GFP response, % of DMSO.
1. O=C(COc1ccccc1[N+](=O)[O-])Nc1ccc(NC(=O)c2cc3ccccc3o2)cc1
2. CC(=O)OCC(=O)[C@@]1(O)CC[C@H]2[C@@H]3CCC4=CC(=O)CC[C@]4(C)[C@H]3C(=O)C[C@@]21C
3. O=C(O)CSc1nnc(-c2ccncc2)n1CCc1ccccc1
4. O=C(Nc1cc(Sc2ccccn2)cc([N+](=O)[O-])c1)c1cccc(Cl)c1
5. COc1ccc(N2C(=O)CC(Sc3nccc(C)n3)C2=O)cc1 (centres undefined)
6. O=C(OCn1ncc(Br)c(Br)c1=O)c1ccc(F)cc1
7. CC1=CCC(C(=O)O)C(C(=O)Nc2ccc(-c3nc4ccc(C)cc4s3)cc2)C1 (centres undefined)

1. 92.1
2. 96.5
3. 91.5
4. 86.9
5. 96.4
6. 108
7. 110

Each compound below has a recorded value; state its GFP response, % of DMSO.
1. CCCOc1ccc(N2C(=O)CC(SCCN)C2=O)cc1 (centres undefined)
2. COc1ccc(-c2[nH]ncc2N=Nc2ccccc2)cc1
3. OCc1ccccc1SSc1ccccc1CO
4. Cc1ccc(NC(=O)c2nc(S(=O)(=O)Cc3ccccc3C)ncc2Cl)cc1C
5. N#C/C(=C\c1c(N2CCCCCC2)nc2ccccn2c1=O)C(=O)NC1CCS(=O)(=O)C1 (centres undefined)
6. Cc1cc(NCCCN2CCOCC2)n2nc(C)c(-c3ccc(F)cc3)c2n1

101
98.4
101
92.3
111
95.8

----------
assayText: modulators of CIT2-GFP expression in yeast, confirmation, S. cerevisiae, GFP fusion, cherry picks, mother/daughter gates (AID 2274)
conditionParameters: S. cerevisiae CIT2-GFP strain, flow cytometry, 3 h; measured here: daughter cell gate; at 10 µM; stronger effect = higher value
Give measured GFP response, % of DMSO for each item. Keep answers brief.
One number for each entry, in %.

Below: 5 molecules and their reported GFP response, % of DMSO.
{"columns": ["molecule", "measurementUnits", "numericReadout"],
 "data": [
  ["O=C(O)CSC1CC(=O)N(c2cccc(Cl)c2)C1=O (stereo not given)", "%", 105],
  ["N=C1/C(=C\\c2ccc(Br)o2)C(=O)N=C2SC(CC(=O)N3CCCCC3)=NN12", "%", 108],
  ["CCOc1ccccc1NC1=C(Cl)C(=O)N(Cc2ccccc2)C1=O", "%", 99.7],
  ["CCOCCCNC(=O)/C(C#N)=C/c1ccc([N+](=O)[O-])o1", "%", 114],
  ["O=C(Nc1c(-c2ccccc2)nc2c(Br)cc(Br)cn12)c1ccco1", "%", 85.2]
]}

Each molecule below has a recorded value; state its GFP response, % of DMSO.
1. CCC(C)(C)NC(=O)C(c1cccs1)N(CC1CCCO1)C(=O)Cn1nnc2ccccc21 (stereo not given)
2. O=C(O)Cn1cc(/C=C/[N+](=O)[O-])c2ccccc21
3. COc1cc(NC(=O)c2ccc(Br)cc2)ccc1NC(=O)c1cc2ccccc2o1
4. COc1ccccc1C(=O)NNC(=S)NC(=O)c1cccs1
5. O=c1c2ccccc2nc(-c2ccccc2)n1CCN1CCOCC1
6. COC(=O)c1ccc(/C=N\NC(=O)c2ccc(C)cc2Cl)cc1
7. O=C(O)c1ccccc1C(=O)N1CCN(c2ccccc2)CC1

1. 105
2. 99.1
3. 96.5
4. 124
5. 95.6
6. 105
7. 105

Each molecule below has a recorded value; state its GFP response, % of DMSO.
1. CC(C)Oc1ccc(C(=O)/C=C2/C(=O)Nc3ccccc32)cc1
2. CCn1c(=O)c(C(=O)NCc2ccc(OC)c(OC)c2)c(O)c2ccccc21
3. CN(c1ccccc1)S(=O)(=O)c1ccc(C(=O)Nc2nnc(-c3ccc(F)cc3)o2)cc1
4. Cc1c(/C=N/Nc2ccc(C(=O)O)cc2)c2ccccc2n1C
5. Cc1cc(=O)oc2cc(OC(C)C(=O)NC3CCCC3)ccc12 (stereo not given)
6. O=C(Nc1nc(-c2ccc(Cl)s2)cs1)c1cccs1
7. COc1ccc(NC(=O)CCN2CCN(S(=O)(=O)c3cc(Cl)ccc3OC)CC2)cc1
8. CCOc1cc(C(=O)N2CCN(c3ccc(C(C)=O)cc3)CC2)cc(OCC)c1OCC

1. 93.2
2. 106
3. 133
4. 81.6
5. 93.8
6. 85.2
7. 100
8. 105

Each molecule below has a recorded value; state its GFP response, % of DMSO.
1. O=C(c1ccc(OCC2CCCO2)cc1)N1CCN(c2ccccc2)CC1 (stereo not given)
2. Cc1ccc(S(=O)(=O)/N=C(\Sc2ccccc2)c2ccccc2)cc1
3. O=S(=O)(/N=C(/Nc1ccc(F)cc1F)c1ccc(Cl)cc1)c1ccccc1

1. 101
2. 92.7
3. 98.3

Each molecule below has a recorded value; state its GFP response, % of DMSO.
1. Cc1cc(NCCCN2CCOCC2)n2ncc(-c3ccccc3)c2n1
2. Cc1ccc(/C=C/C(=O)NC2CCCCCCC2)o1
3. CCN(CC)c1ccc2cc(-c3nc4ccccc4[nH]3)c(=O)oc2c1
4. Cc1c([N+](=O)[O-])cnc(Sc2ccccc2)c1[N+](=O)[O-]
5. Cc1cccc(CSc2cccc3cccnc23)c1
6. O=C(COc1ccccc1)NNC(=S)NC(=O)c1ccccc1

1: 98.1; 2: 105; 3: 132; 4: 101; 5: 90.5; 6: 121

----------
assayText: modulators of CIT2-GFP expression in yeast, confirmation, S. cerevisiae, GFP fusion, cherry picks, mother/daughter gates (AID 2274)
conditionParameters: S. cerevisiae CIT2-GFP strain, flow cytometry, 3 h; at 10 µM; stronger effect = higher value
recordedMetric: GFP response, % of DMSO (%)
Numbers only, in %.

{"columns": ["compound", "GFP response, % of DMSO / %"],
 "data": [
  ["Cc1cc(C)c(C(=O)COC(=O)c2ccc([N+](=O)[O-])o2)cc1C", 100],
  ["CCOC(=O)c1cc(S(=O)(=O)N2CCN(C(=O)OCC)CC2)cn1C", 100],
  ["Cc1ccccc1N1C(=O)c2cccc3c(N(C)CCO)ccc(c23)C1=O", 101],
  ["O=C1C2C3C=CC(CO)(O3)C2C(=O)N1c1ccc(-c2ccccc2)cc1 (centres undefined)", 91.5],
  ["COC(=O)CNc1c(-c2ccccn2)nc2ccc(Br)cn12", 107]
]}

Each compound below has a recorded value; state its GFP response, % of DMSO.
1. Cc1ccc(/C=C/C(=O)c2ccccc(=O)c2O)c(C)c1
2. O=C1c2ccccc2C(=O)c2c([N+](=O)[O-])ccc(O)c21
3. Cc1ccc(S(=O)(=O)N2CCCC2C(=O)Oc2ccccc2)cc1 (centres undefined)
4. COc1cccc2c1Oc1ncccc1N(C(=O)CCC(=O)NCc1ccc(F)cc1)C2
5. Cc1cc(NCCOCCO)n2ncc(-c3ccc(Cl)cc3)c2n1
6. COc1ccc(NC(=O)/C(Cl)=C(/Cl)S(=O)Cc2ccccc2)cn1 (centres undefined)
7. CN(C)c1ccc(N=Cc2nc(-c3ccccc3)oc2OC(=O)c2cccc(Cl)c2)cc1

1. 103
2. 92.2
3. 98.3
4. 105
5. 102
6. 114
7. 102
